# Tested on: Trypanosoma cruzi Tulahuen cells expressing beta-galactosidase
# assay.notes: T. cruzi intracellular assay (beta-galactosidase, L6 host cells)
# condition.parameters: read-out: IC50 T. cruzi; Table 1; intracellular assay; mean of 2(+) trials (^c one trial)
pIC50: −log10 of the molar value.
quantity.kind: pIC50

*Q* Look up pIC50 with Trypanosoma cruzi Tulahuen cells expressing beta-galactosidase for this compound: O=C1/C(=C/[c-]2cccc2)Oc2ccccc21.[Fe+2].c1cc[cH-]c1
*A* < 4.30

====

# Tested on: rat skeletal muscle cell line, L6
# assay.notes: cells
# Format: cell-based
# condition.parameters: Table 1; read-out: IC50 Toxicity (L6)
pIC50: −log10 of the molar value.
quantity.kind: pIC50

*Q* Form field: reported pIC50 of O=C1/C(=C/[c-]2cccc2)Oc2ccccc21.[Fe+2].c1cc[cH-]c1
*A* < 4.00
